Biological target: UniProt P41145
Sequence (P41145 whole entry): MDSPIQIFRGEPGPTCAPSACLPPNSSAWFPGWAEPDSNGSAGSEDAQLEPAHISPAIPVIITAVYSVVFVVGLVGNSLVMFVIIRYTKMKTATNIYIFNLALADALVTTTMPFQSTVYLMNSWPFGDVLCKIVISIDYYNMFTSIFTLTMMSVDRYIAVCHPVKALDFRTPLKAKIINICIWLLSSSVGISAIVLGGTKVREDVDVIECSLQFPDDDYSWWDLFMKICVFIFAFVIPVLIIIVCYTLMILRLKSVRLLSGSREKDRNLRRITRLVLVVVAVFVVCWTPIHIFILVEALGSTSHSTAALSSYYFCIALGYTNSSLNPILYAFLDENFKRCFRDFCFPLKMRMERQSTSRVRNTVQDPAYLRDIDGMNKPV
Details: Compound concentration 10 µM
Description: PDSP Primary Binding target: OPRK1 - Compounds are tested at 10 uM concentration, plate are incubated at room temperature in the dark for 90 minutes. Reaction are stopped by vacuum filtration onto 0.3% polyethyleneimine soaked filter mats using Filtermate harvester. Scintilation cocktail is then melted onto microwave-dried filters on a hot plate and the radio activity is counted in Microbia counter.
result.type: inhibition (%)
Write the number in % without appending the unit.

These recorded examples may help you get a feel for the data.
chem.smiles: CN1CCC(=C2c3ccccc3CC(=O)c3sccc32)CC1
study.system: UniProt P41145
inhibition / %: 20.8
//
chem.smiles: N#Cc1c(N)nc(SCc2csc(-c3ccc(Cl)cc3)n2)c(C#N)c1-c1ccc(OCCO)cc1
study.system: UniProt P41145
inhibition / %: -8.5
//
chem.smiles: NCCc1c[nH]c2ccc(C(N)=O)cc12
study.system: UniProt P41145
inhibition / %: 2.24
//
chem.smiles: CCCCN(CC)c1nc(C)nc2c1c(C)cn2-c1c(C)cc(C)cc1C
study.system: UniProt P41145
inhibition / %: 43.2
//
chem.smiles: N=C(N)SCCc1c[nH]cn1
study.system: UniProt P41145
inhibition / %: 5.15
//
chem.smiles: OC1(c2ccc(Cl)cc2)CCN(Cc2c[nH]c3ccccc23)CC1
study.system: UniProt P41145
inhibition / %: 3.1

// inhibition lookup, compound = `Cc1nc(C(=O)N2CCC[C@H]2Cc2nnc(-c3ccccc3)o2)c(-c2ccccc2F)s1` , result: 57.7

// inhibition lookup, compound = `c1cc(CN2CCCNCCNCCCNCC2)ccc1CN1CCCNCCNCCCNCC1` , result: 13.8

// inhibition lookup, compound = `N[C@H](C(=O)O)c1ccc(C(=O)O)c(C(=O)O)c1` , result: 4.93

// inhibition lookup, compound = `S=C(NCCCc1c[nH]cn1)NCCCN(Cc1ccc(Cl)c(Cl)c1)c1ccc(Br)cn1` , result: 64.9

// inhibition lookup, compound = `c1ccc(N2CCN(Cc3nc4ccccc4[nH]3)CC2)nc1` , result: 54.7

###

Molecular target: D(2) dopamine receptor (Homo sapiens)
Conditions: Compound concentration 10 µM
Description: PDSP Primary Binding target: DRD2 - Compounds are tested at 10 uM concentration, plate are incubated at room temperature in the dark for 90 minutes. Reaction are stopped by vacuum filtration onto 0.3% polyethyleneimine soaked filter mats using Filtermate harvester. Scintilation cocktail is then melted onto microwave-dried filters on a hot plate and the radio activity is counted in Microbia counter.
Please mark True if the recorded inhibition is equal to or greater than 20%, and False if it falls below.

These recorded examples may help you get a feel for the data.
molecule: CC(C)NCC(O)COc1cccc2ccccc12 (stereo unspecified)
label: False

molecule: CN1CC(=O)N=C1NC(=O)Nc1cccc(Cl)c1
label: False

molecule: O=C(O)c1cc(-c2ccc(C3CCNCC3)cc2)c2ccc(-c3ccc(C(F)(F)F)cc3)cc2c1
label: False

Input: Tell me whether inhibition is at least 20% here: `CCCCC#Cc1nc(NC)c2ncn([C@@H]3O[C@H](CO)[C@@H](O)[C@H]3O)c2n1`
Output: False

Input: Tell me whether inhibition is at least 20% here: `Cc1c(C2=CCN(C(=O)N(C)C(C)C)CC2)nnn1-c1cccnc1F`
Output: False

Input: Tell me whether inhibition is at least 20% here: `Cc1c(P(=S)(c2ccccc2)c2ccccc2)n2ccccc2[n+]1C/C=C/c1ccccc1`
Output: True

###

Biological target: D(1B) dopamine receptor (Homo sapiens) (UniProt P21918)
Sequence (P21918 whole entry): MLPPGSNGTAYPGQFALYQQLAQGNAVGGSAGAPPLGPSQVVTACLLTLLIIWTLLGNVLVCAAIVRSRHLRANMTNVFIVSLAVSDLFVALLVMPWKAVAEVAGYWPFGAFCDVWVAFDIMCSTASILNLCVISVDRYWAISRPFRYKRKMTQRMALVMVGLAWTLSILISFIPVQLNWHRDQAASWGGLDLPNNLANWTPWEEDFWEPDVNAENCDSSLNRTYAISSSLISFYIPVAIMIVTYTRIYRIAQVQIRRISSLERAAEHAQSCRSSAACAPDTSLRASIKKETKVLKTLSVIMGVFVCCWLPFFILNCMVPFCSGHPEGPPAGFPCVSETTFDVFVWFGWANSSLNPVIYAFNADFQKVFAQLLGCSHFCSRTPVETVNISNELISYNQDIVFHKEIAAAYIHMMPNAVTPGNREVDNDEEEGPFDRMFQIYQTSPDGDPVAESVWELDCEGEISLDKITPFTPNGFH
Conditions: Compound concentration 10 µM
Description: PDSP Primary Binding target: DRD5 - Compounds are tested at 10 uM concentration, plate are incubated at room temperature in the dark for 90 minutes. Reaction are stopped by vacuum filtration onto 0.3% polyethyleneimine soaked filter mats using Filtermate harvester. Scintilation cocktail is then melted onto microwave-dried filters on a hot plate and the radio activity is counted in Microbia counter.
In this section we review reported inhibition values for a set of molecules.
Write the number in % without appending the unit.

molecule: CCCCN(CC)c1nc(C)nc2c1c(C)cn2-c1c(C)cc(C)cc1C
study.system: D(1B) dopamine receptor (Homo sapiens) (UniProt P21918)
inhibition / %: -2.04
//
molecule: CCCCCCCCCCCCC/C=C/[C@@H](O)[C@@H](N)COP(=O)(O)O
study.system: D(1B) dopamine receptor (Homo sapiens) (UniProt P21918)
inhibition / %: 22.7
//
molecule: FC(F)(F)c1c(N2CCC(c3ccccc3)CC2)ccn2c(CC3CC3)nnc12
study.system: D(1B) dopamine receptor (Homo sapiens) (UniProt P21918)
inhibition / %: -0.45
//
molecule: Cc1cc(C)c(N)c(C#Cc2cccc(F)c2)n1
study.system: D(1B) dopamine receptor (Homo sapiens) (UniProt P21918)
inhibition / %: 0.26
//
molecule: CC(C)NCC(O)COc1ccc(CCOCC2CC2)cc1 (stereo unspecified)
study.system: D(1B) dopamine receptor (Homo sapiens) (UniProt P21918)
inhibition / %: 6.71

Here's the next entry for you.
// inhibition lookup, molecule = `COc1ccc(Br)cc1S(=O)(=O)NC(=O)/C=C/c1ccccc1Cc1ccc2ccccc2c1` , result: -9.64

###

In this section we review reported inhibition values for a set of compounds.
Target: D(4) dopamine receptor (Homo sapiens) (UniProt P21917)
Sequence (P21917 whole entry): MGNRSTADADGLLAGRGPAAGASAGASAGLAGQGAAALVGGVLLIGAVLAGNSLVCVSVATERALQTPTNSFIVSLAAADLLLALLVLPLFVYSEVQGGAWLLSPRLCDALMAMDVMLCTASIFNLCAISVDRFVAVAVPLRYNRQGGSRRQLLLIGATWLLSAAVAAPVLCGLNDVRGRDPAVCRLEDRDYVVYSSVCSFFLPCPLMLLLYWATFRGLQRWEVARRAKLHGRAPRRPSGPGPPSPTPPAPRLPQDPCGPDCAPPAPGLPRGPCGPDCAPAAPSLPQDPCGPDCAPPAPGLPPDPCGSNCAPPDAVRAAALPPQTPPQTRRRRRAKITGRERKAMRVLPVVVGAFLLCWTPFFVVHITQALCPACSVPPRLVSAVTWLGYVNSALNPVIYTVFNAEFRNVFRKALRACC
Conditions: Compound concentration 10 µM
Description: PDSP Primary Binding target: DRD4 - Compounds are tested at 10 uM concentration, plate are incubated at room temperature in the dark for 90 minutes. Reaction are stopped by vacuum filtration onto 0.3% polyethyleneimine soaked filter mats using Filtermate harvester. Scintilation cocktail is then melted onto microwave-dried filters on a hot plate and the radio activity is counted in Microbia counter.
Write the number in % without appending the unit.

compound: Clc1ccc(CCCOCCCN2CCCCC2)cc1
result.type: inhibition
reported.result: 21.5

compound: CC1CCN(CC[C@H]2CCCN2S(=O)(=O)c2cccc(O)c2)CC1
result.type: inhibition
reported.result: 22.1

compound: Clc1cccc(Cl)c1NC1=NCCN1
result.type: inhibition
reported.result: -2.87

compound: Nc1nc2c(c(N3CCNCC3)n1)CCC1=C2[C@@H]2CCCC[C@@H]2O1
result.type: inhibition
reported.result: 8.96

compound: COc1ccccc1CN[C@H]1C2CCN(CC2)[C@H]1C(c1ccccc1)c1ccccc1
result.type: inhibition
reported.result: 15.3

compound: COc1ccc2cc(S(=O)(=O)N[C@H](CC(=O)N[C@H](Cc3ccc(CN4[C@H](C)CCC[C@@H]4C)cc3)C(=O)N(C)C(C)C)c3ccc4c(c3)OCO4)ccc2c1
result.type: inhibition
reported.result: 33.2

compound: N#Cc1c(N)nc(SCc2csc(-c3ccc(Cl)cc3)n2)c(C#N)c1-c1ccc(OCCO)cc1
result.type: inhibition
reported.result: 38.4

compound: COc1ccc(S(=O)(=O)c2cc(OC)ccc2S(=O)(=O)c2ccc([C@H](C)NS(C)(=O)=O)cc2)cc1
result.type: inhibition
reported.result: 58.7

// inhibition lookup, compound = `O=C(O)C1CN(Cc2ccc(-c3nc4cc(Cc5ccccc5F)ccc4s3)c(F)c2)C1` , result: -6.1

// inhibition lookup, compound = `Cc1cc(NC(=O)NCCN2CCC(O)(Cc3ccccc3)CC2)c2ccccc2n1` , result: 21.1

// inhibition lookup, compound = `COc1cc2nc(N3CCN(C(=O)c4ccco4)CC3)nc(N)c2cc1OC` , result: 27.4

// inhibition lookup, compound = `Brc1c(NC2=NCCN2)ccc2nccnc12` , result: 16.9

// inhibition lookup, compound = `CC(C)(C)NC[C@H](O)COc1nsnc1N1CCOCC1` , result: 15.6

// inhibition lookup, compound = `OC[C@H]1O[C@@H](n2cnc3c(NC4CCCC4)ncnc32)[C@H](O)[C@@H]1O` , result: 34

// inhibition lookup, compound = `S=C(NCCCc1c[nH]cn1)NCCCN(Cc1ccc(Cl)c(Cl)c1)c1ccc(Br)cn1` , result: 40.9

// inhibition lookup, compound = Cc1c(OCc2cccc(-c3ccc(C(=O)O)cc3)c2)cc2c(c1C)C(=O)C(C1CCCC1)C2 (stereo not given) , result: 44

// inhibition lookup, compound = O=C(c1cc2c(cc1F)OC(c1ccc(F)cc1)(c1ccc(Cl)cc1Cl)O2)N1CCOCC1 (stereo not given) , result: 29.6

// inhibition lookup, compound = `CN1CC(=O)N=C1NC(=O)Nc1cccc(Cl)c1` , result: 27.2

// inhibition lookup, compound = `CN(C)C(=O)N[C@H]1CC[C@H](CCN2CCN(c3cccc(Cl)c3Cl)CC2)CC1` , result: 103

// inhibition lookup, compound = `N[C@H](C(=O)O)c1ccc(C(=O)O)c(C(=O)O)c1` , result: -8.24

// inhibition lookup, compound = `Cc1csc(NC(=O)c2cc(F)cc(Oc3cncnc3)c2)n1` , result: 23.6

// inhibition lookup, compound = `COc1ccc(NC(=O)c2ccc(-c3ccc(-c4noc(C)n4)cc3C)cc2)cc1OCCN(C)C` , result: 45.4

// inhibition lookup, compound = `CCC[C@H](Oc1cc(C)c(-n2cc(C(F)(F)F)cn2)c(C)c1)c1ccc(C(=O)NCCC(=O)O)cc1` , result: -1.34

// inhibition lookup, compound = `N=C(N)SCCc1c[nH]cn1` , result: 6.59

// inhibition lookup, compound = `CC[C@@H]1CN2C(=O)N(C)c3nc(-c4ccccc4)[nH]c3C2=N1` , result: 10.4

// inhibition lookup, compound = `C[C@@H](NCCCc1cccc(C(F)(F)F)c1)c1cccc2ccccc12` , result: 48

// inhibition lookup, compound = `C[C@]1(C(=O)N(CCCC(=O)O)Cc2cccc(Cl)c2)CCN1C(=O)c1csc2ccccc12` , result: 4.3

// inhibition lookup, compound = `CN1CCN(c2ccc(Nc3c4ccccc4nc4ccccc34)cc2)CC1` , result: 13.3

// inhibition lookup, compound = `CCCCCCCCCCCCCCCCOC[C@H](COP(=O)([O-])OCC[N+](C)(C)C)OC(C)=O` , result: 16.4

// inhibition lookup, compound = `CCc1cc(C(C)=O)c(O)cc1OCCCCCC(C)(C)c1nn[nH]n1` , result: 22.6

// inhibition lookup, compound = `CN(C)C(=O)C(CCN1CCC(O)(c2ccc(Cl)cc2)CC1)(c1ccccc1)c1ccccc1` , result: 54.2

// inhibition lookup, compound = COc1ccc(C2(O)OC(=O)C(c3ccc4c(c3)OCO4)=C2Cc2cc(OC)c(OC)c(OC)c2)cc1 (stereo not given) , result: 7.04
